Source listed as patent US10933056B2.

System: human M4 muscarinic acetylcholine receptor (Homo sapiens)
Experimental Protocol: human FLIPR-based M4 PAM assay (calcium mobilization in CHO-K1 cells with human M4 receptor and Gαqi5)
Run Conditions: inflection point of dose response curve, acetylcholine at 20% of maximum response, FLIPR Tetra, read-out: M4 PAM IP
pEC50: −log10 of the molar value.
// reported pEC50 for each item listed
Assay Readout: pEC50

{"columns": ["Molecule", "System", "Observed Value"],
 "data": [
  ["N#Cc1ccc(-c2cnn(CC3CCCC3)c2)c(-c2ccc3c(c2)C(=O)NC3)n1 [Example 20]", "human M4 muscarinic acetylcholine receptor (Homo sapiens)", 8.05],
  ["CC1(Cn2cc(-c3cc4c(nc3-c3ccc5c(c3)C(=O)NC5)CCC4)cn2)CCCC1 [Example 55]", "human M4 muscarinic acetylcholine receptor (Homo sapiens)", 7.42],
  ["CC1(Cn2cc(-c3cc4c(nc3-c3cnc5c(c3)C(=O)N(CC3CC3)C5)CCC4)cn2)CCCC1 [Example 10]", "human M4 muscarinic acetylcholine receptor (Homo sapiens)", 7.27],
  ["CC1(Cn2cc(-c3cc4c(nc3-c3cnc5c(c3)C(=O)NC5)[C@H](F)CC4)cn2)CCCC1 [Example 39A]", "human M4 muscarinic acetylcholine receptor (Homo sapiens)", 7.24],
  ["CN1Cc2ccc(-c3nc(F)c(F)cc3-c3cnn(CC4(C)CCCC4)c3)cc2C1=O [Example 127]", "human M4 muscarinic acetylcholine receptor (Homo sapiens)", 7.05],
  ["Cc1ccc(-c2cnn(CC3(C)CCCC3)c2)c(-c2ccc3c(c2)C(=O)NC3)n1 [Example 104]", "human M4 muscarinic acetylcholine receptor (Homo sapiens)", 7.85],
  ["CC1(Cn2cc(-c3ccc(C#N)nc3-c3ccc4c(c3)C(=O)N(CCF)C4)cn2)CCCC1 [Example 42]", "human M4 muscarinic acetylcholine receptor (Homo sapiens)", 7.43],
  ["Cc1cc(F)c(-c2cnn(CC3(C)CCCC3)c2)c(-c2ccc3c(c2)C(=O)N(C)C3)n1 [Example 126]", "human M4 muscarinic acetylcholine receptor (Homo sapiens)", 7.15]
]}

* * *

System: human M4 muscarinic acetylcholine receptor (Homo sapiens, UniProt P08173)
Construct: expressed in transfected cells; host or cells: CHO-K1
Experimental Protocol: human FLIPR-based M4 PAM assay (calcium mobilization in CHO-K1 cells with human M4 receptor and Gαqi5)
Type: cell-based
Run Conditions: inflection point of dose response curve, acetylcholine at 20% of maximum response, FLIPR Tetra, read-out: M4 PAM IP
Method: In a typical experiment the M4 muscarinic acetylcholine receptor modulating activity of the compounds of the present invention was determined in accordance with the following experimental method. […] Following dye loading the cell plates are placed in a FLIPR Tetra instrument and while monitoring dye fluorescence (excitation […]), 10 uL of test substance at increasing concentrations is added, and fluorescence values are recorded for 4 min. […]
pEC50: −log10 of the molar value.
// reported pEC50 for each item listed

{"columns": ["Smiles Representation", "pEC50"],
 "data": [
  ["O=C1c2cc(-c3ncccc3-c3cnn(CC4CCCC4)c3)ccc2CN1C1CCC1", 7.49],
  ["CC1(Cn2cc(-c3ccc(C#N)nc3-c3ccc4c(c3)C(=O)N(C3CC3)C4)cn2)CCCC1", 8.15],
  ["C#Cc1ccc(-c2cnn(CC3(C)CCCC3)c2)c(-c2cnc3c(c2)C(=O)N(CC2CC2)C3)n1", 7.21],
  ["CN1Cc2ccc(-c3nc(F)ccc3-c3cnn(CC4(C)CCCC4)c3F)cc2C1=O", 7.36],
  ["Cc1cc(N)c(-c2cnn(CC3(C)CCCC3)c2)c(-c2ccc3c(c2)C(=O)N(C)C3)n1", 6.53],
  ["CN1Cc2ccc(-c3nc(C#N)ccc3-c3cnn(CC4(C)CCCC4)c3Cl)cc2C1=O", 6.97],
  ["CN1Cc2ncc(-c3nc4c(cc3-c3cnn(CC5(C)CCCC5)c3F)CCC4)cc2C1=O", 7.62],
  ["CN1Cc2ncc(-c3nc(F)ccc3-c3cnn(CC4(C)CCCC4)c3F)cc2C1=O", 7.85]
]}

* * *

// reported pEC50 for each item listed
System: human M4 muscarinic acetylcholine receptor (Homo sapiens)
Sequence (P08173 1-479): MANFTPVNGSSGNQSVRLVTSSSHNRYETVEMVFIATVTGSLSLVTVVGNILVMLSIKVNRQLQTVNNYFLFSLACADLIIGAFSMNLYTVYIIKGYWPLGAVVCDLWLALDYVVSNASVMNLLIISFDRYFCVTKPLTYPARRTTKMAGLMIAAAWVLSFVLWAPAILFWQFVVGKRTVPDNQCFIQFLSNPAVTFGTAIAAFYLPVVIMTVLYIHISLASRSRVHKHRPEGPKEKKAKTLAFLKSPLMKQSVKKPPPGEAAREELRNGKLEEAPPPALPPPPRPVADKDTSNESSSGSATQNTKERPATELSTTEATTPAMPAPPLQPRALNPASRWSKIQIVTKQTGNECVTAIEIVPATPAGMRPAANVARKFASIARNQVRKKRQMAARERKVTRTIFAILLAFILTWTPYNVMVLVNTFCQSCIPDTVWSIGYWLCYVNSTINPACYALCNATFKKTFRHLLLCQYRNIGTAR
Experimental Protocol: human FLIPR-based M4 PAM assay (calcium mobilization in CHO-K1 cells with human M4 receptor and Gαqi5)
Run Conditions: inflection point of dose response curve, acetylcholine at 20% of maximum response, FLIPR Tetra, read-out: M4 PAM IP
pEC50: −log10 of the molar value.

{"columns": ["Compound", "System", "pEC50"],
 "data": [
  ["CN1Cc2ncc(-c3nc(C(F)F)ccc3-c3cnn(CC4(C)CCCC4)c3)cc2C1=O [Example 80]", "human M4 muscarinic acetylcholine receptor (Homo sapiens)", 7.59],
  ["CN1Cc2ccc(-c3nc(C#N)ccc3-c3cnn(CC4(C)CCCC4)c3F)cc2C1=O [Example 43]", "human M4 muscarinic acetylcholine receptor (Homo sapiens)", 7.70],
  ["CNC(=O)c1ccc(-c2cnn(CC3CCCC3)c2)c(-c2ccc3c(c2)C(=O)N(CC2CC2)C3)n1 [Example 12]", "human M4 muscarinic acetylcholine receptor (Homo sapiens)", 6.46],
  ["CC1(Cn2cc(-c3cc4c(nc3-c3cnc5c(c3)C(=O)N(CC3CC3)C5)[C@H](F)CC4)cn2)CCCC1 (single isomer, unassigned) [Example 1A]", "human M4 muscarinic acetylcholine receptor (Homo sapiens)", 7.17],
  ["CC1(Cn2cc(-c3cc4c(nc3-c3cnc5c(c3)C(=O)N(CCF)C5)CCC4)cn2)CCCC1 [Example 66]", "human M4 muscarinic acetylcholine receptor (Homo sapiens)", 7.41],
  ["O=C1c2cc(-c3ncccc3-c3cnn(CC4CCCC4)c3)ccc2CN1CC1CCC1 [Example 86]", "human M4 muscarinic acetylcholine receptor (Homo sapiens)", 7.21],
  ["CC1(Cn2cc(-c3c(F)ccnc3-c3ccc4c(c3)C(=O)N(CC3CC3)C4)cn2)CCCC1 [Example 29]", "human M4 muscarinic acetylcholine receptor (Homo sapiens)", 7.89]
]}

* * *

// reported pEC50 for each item listed
System: human M4 muscarinic acetylcholine receptor (Homo sapiens)
Experimental Protocol: human FLIPR-based M4 PAM assay (calcium mobilization in CHO-K1 cells with human M4 receptor and Gαqi5)
Run Conditions: inflection point of dose response curve, acetylcholine at 20% of maximum response, FLIPR Tetra, read-out: M4 PAM IP
pEC50: −log10 of the molar value.

{"columns": ["Molecule", "pEC50"],
 "data": [
  ["CN1Cc2ccc(-c3nc(C#N)ccc3-c3cnn(CC4CCCC4)c3)cc2C1=O [Example 11]", 7.96],
  ["O=C1c2cc(-c3ncccc3-c3cnn(CC4CCCC4)c3)ccc2CN1CCc1ccccc1 [Example 92]", 7.35],
  ["CN1Cc2ccc(-c3nc(CO)c(F)cc3-c3cnn(CC4(C)CCCC4)c3)cc2C1=O [Example 41]", 7.19],
  ["Cc1ccc(-c2cnn(CC3(C)CCCC3)c2)c(-c2ccc3c(c2)C(=O)N(CC2CC2)C3)n1 [Example 65]", 6.87],
  ["CN1Cc2ccc(-c3nc4c(cc3-c3cnn(CC5(C)CCCC5)c3)CCC4=O)cc2C1=O [Example 124]", 7.52],
  ["Cc1ccc(-c2cnn(CC3CCCC3)c2)c(-c2ccc3c(c2)C(=O)N(C)C3)n1 [Example 97]", 7.80],
  ["CN1Cc2ccc(-c3nc(Cl)cc(N)c3-c3cnn(CC4(C)CCCC4)c3)cc2C1=O [Example 63]", 6.31],
  ["CNC(=O)c1ccc(-c2cnn(CC3CCCC3)c2)c(-c2ccc3c(c2)C(=O)N(C)C3)n1 [Example 14]", 6.16],
  ["CC#CCN1Cc2ncc(-c3nc4c(cc3-c3cnn(CC5(C)CCCC5)c3)CCC4)cc2C1=O [Example 119]", 7.15],
  ["Cc1cc(-c2cnn(CC3(C)CCCC3)c2)c(-c2ccc3c(c2)C(=O)N(C)C3)nc1C(N)=O [Example 113]", 7.16],
  ["N#Cc1ccc(-c2cnn(CC3CCCC3)c2)c(-c2ccc3c(c2)C(=O)N(C2CC2)C3)n1 [Example 19]", 8.05],
  ["CN1Cc2ccc(-c3nc(CF)c(F)cc3-c3cnn(CC4(C)CCCC4)c3)cc2C1=O [Example 115]", 7.33],
  ["CC1(Cn2cc(-c3ccc(C#N)nc3-c3cnc4c(c3)C(=O)N(CCO)C4)cn2)CCCC1 [Example 129]", 7.41],
  ["CC1(Cn2cc(-c3ccc(C#N)nc3-c3ccc4c(c3)C(=O)NC4(C)C)cn2)CCCC1 [Example 64]", 6.92],
  ["COCc1nc(-c2ccc3c(c2)C(=O)N(C)C3)c(-c2cnn(CC3(C)CCCC3)c2)cc1C [Example 116]", 6.49],
  ["CC1(Cn2cc(-c3ccc(C#N)nc3-c3ccc4c(c3)C(=O)NC4)cn2)CCCC1 [Example 34]", 7.82]
]}
